Reference source: paper PMC6792352

System: GH3-TRE-Luc cell line
Conditions: read-out: AC50 (uM) modified / 1000; Tox21_110001=Tox21_110007; viability, 1 nM T3 present, 24 h
REPORTED_ENDPOINT: CC50 (µM)
Form entry: value (µM) — number only.

CC50 recorded for this molecule, CC(C)(C)c1cc(O)ccc1O [tert-Butylhydroquinone] , is 7.35

* * *

Assay: in vitro
Details: rat, gh3-tre-luc cells, AC50 (uM) modified / 1000, Tox21_110001=Tox21_201053; viability, 1 nM T3 present, 24 h
REPORTED_ENDPOINT: CC50 at 24 h

# CC50 at 24 h (compound: CCOC(=O)CCl [Ethyl chloroacetate] ) is > 90 µM
